- measured target: PI3K isoform δ (Homo sapiens (Human))
- Sequence (O00329 whole entry, canonical isoform): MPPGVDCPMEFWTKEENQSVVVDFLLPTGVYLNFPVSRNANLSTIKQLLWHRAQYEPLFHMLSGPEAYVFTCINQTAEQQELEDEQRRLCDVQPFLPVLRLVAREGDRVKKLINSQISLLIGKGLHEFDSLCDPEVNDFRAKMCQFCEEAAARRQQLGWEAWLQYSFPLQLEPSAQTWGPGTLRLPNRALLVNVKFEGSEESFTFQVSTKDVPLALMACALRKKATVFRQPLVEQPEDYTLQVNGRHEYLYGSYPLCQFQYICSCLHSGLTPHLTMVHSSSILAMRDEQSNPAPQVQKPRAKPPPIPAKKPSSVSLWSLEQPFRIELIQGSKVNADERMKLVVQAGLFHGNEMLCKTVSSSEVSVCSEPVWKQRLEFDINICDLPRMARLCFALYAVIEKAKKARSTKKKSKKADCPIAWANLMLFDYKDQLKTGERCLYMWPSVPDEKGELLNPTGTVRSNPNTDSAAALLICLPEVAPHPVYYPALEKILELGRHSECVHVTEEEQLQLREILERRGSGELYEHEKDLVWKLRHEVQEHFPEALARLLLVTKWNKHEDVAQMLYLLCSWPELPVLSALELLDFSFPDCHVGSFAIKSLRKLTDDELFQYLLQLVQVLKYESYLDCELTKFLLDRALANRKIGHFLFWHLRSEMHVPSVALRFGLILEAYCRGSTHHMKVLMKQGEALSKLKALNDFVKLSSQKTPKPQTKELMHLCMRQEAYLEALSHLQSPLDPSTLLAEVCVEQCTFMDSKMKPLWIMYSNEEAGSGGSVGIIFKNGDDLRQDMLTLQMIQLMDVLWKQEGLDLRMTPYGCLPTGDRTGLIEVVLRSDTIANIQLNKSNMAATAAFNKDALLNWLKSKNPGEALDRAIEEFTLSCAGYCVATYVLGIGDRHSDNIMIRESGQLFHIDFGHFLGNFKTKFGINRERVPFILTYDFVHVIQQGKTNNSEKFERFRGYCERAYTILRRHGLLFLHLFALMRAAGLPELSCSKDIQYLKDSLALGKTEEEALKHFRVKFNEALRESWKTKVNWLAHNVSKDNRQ
- Sequence (P27986 whole entry partner, canonical isoform): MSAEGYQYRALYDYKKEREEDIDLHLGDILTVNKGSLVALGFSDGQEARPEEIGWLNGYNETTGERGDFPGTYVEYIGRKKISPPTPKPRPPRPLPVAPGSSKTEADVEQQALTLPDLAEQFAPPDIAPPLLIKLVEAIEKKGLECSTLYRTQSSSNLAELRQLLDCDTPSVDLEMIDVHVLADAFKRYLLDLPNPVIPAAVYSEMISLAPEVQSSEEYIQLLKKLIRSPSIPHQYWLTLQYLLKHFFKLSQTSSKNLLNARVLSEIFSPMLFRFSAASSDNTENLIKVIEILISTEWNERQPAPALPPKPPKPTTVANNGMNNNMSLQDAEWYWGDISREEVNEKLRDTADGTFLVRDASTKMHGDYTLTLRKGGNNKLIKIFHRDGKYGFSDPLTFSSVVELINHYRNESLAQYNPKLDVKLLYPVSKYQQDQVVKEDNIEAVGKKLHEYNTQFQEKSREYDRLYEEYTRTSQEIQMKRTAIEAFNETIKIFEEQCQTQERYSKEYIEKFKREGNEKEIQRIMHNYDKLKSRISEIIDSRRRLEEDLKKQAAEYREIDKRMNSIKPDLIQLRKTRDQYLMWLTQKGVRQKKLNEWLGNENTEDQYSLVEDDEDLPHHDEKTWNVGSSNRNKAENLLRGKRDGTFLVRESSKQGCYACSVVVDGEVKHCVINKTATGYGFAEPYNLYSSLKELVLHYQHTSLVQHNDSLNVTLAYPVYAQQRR
- assay comment: TR-FRET assay of enzymatic activity of class I PI3K isoforms
- run parameters: read-out: IC50 (nM) for PI3K isoform δ (Table 3); TR-FRET; 2× Km ATP, 2 μM PIP2; incubated for 30 minutes at 25° C.
measured attribute: IC50 (nM)
Entry rule: numbers only, all in nM.

These solved cases illustrate the format of a correct answer.
{"query smiles": "C[C@H](Nc1nc(N)nc(Cl)c1C#N)c1nc2cccc(Cl)c2c(=O)n1-c1cc(F)cc(F)c1", "measured attribute": "IC50", "experimental result": 2}
{"query smiles": "CC1CCN(C(=O)COc2cccc3nc([C@H](C)Nc4nc(N)nc(N)c4C#N)n(-c4ccccc4)c(=O)c23)CC1", "measured attribute": "IC50", "experimental result": 2}
{"query smiles": "C[C@H](Nc1nc(N)nc(N)c1C#N)c1nc2cccc(CCCN3CCC(F)(F)C3)c2c(=O)n1-c1ccccc1", "measured attribute": "IC50", "experimental result": 2}
{"query smiles": "C[C@H](Nc1nc(N)nc(N)c1C#N)c1nc2c(F)ccc(CCC(N)=O)c2c(=O)n1-c1ccccc1", "measured attribute": "IC50", "experimental result": 0.5}
{"query smiles": "C[C@H](Nc1nc(N)nc(N)c1C#N)c1nc2cccc(S(=O)(=O)C3CCCC3)c2c(=O)n1-c1cccc(F)c1", "measured attribute": "IC50", "experimental result": 61}
{"query smiles": "N#Cc1c(N)nc(N)nc1N1C[C@H](F)C[C@H]1c1nc2cccc(Cl)c2c(=O)n1-c1cc(F)cc(F)c1", "measured attribute": "IC50", "experimental result": 160}
{"query smiles": "C[C@H](Nc1nc(N)nc(N)c1C#N)c1nc2cccc(CCC(N)=O)c2c(=O)n1-c1cc(F)cc(F)c1", "measured attribute": "IC50", "experimental result": 4}
{"query smiles": "C[C@H](Nc1nc(N)nc(N)c1C#N)c1nc2cccc(OCC(C)(CO)CO)c2c(=O)n1-c1ccccc1", "measured attribute": "IC50", "experimental result": 220}
{"query smiles": "N#Cc1c(N)nc(N)nc1N1CCC[C@H]1c1nc2cccc(CCCC(=O)O)c2c(=O)n1-c1ccccc1", "measured attribute": "IC50", "experimental result": 3}
{"query smiles": "N#Cc1c(N)nc(N)nc1N[C@H](c1nc2c(F)ccc(CCCN3CCCCC3)c2c(=O)n1-c1ccccc1)C1CC1", "measured attribute": "IC50", "experimental result": 2}

Param item = C[C@H](Nc1nc(F)nc(N)c1C#N)c1nc2cccc(Cl)c2c(=O)n1-c1ccccc1 ; retrieve measured IC50.
0.8

Quick one: IC50 for N#Cc1cc(F)cc(-n2c([C@@H]3CCCN3c3nc(N)nc(N)c3C#N)nc3cccc(Cl)c3c2=O)c1 ?
17

Quick one: IC50 of Cc1nc(N)nc(N[C@@H](C)c2nc3cccc(Cl)c3c(=O)n2-c2ccccc2)c1C#N ?
0.1

Dear colleague, I am looking for the recorded IC50 of the following molecule: C[C@H](Nc1nc(N)nc(N)c1C#N)c1nc2cccc(OCCN3CCCCCC3)c2c(=O)n1-c1ccccc1
10

Entry under review: C[C@H](Nc1nc(N)nc(N)c1C#N)c1nc2cccc(CCCC(=O)O)c2c(=O)n1-c1cc(F)cc(F)c1 . Reported IC50?
2

Look at this molecule and give its reported IC50. CS(=O)(=O)c1cccc2nc([C@@H]3CCCN3c3nc(N)nc(N)c3C#N)n(-c3cccc(F)c3)c(=O)c12
4

For C[C@H](Nc1nc(N)nc(N)c1C#N)c1nc2c(F)ccc(CCC(N)=O)c2c(=O)n1-c1cc(F)cc(F)c1 , what is its reported IC50?
2

Using the record for N#Cc1c(N)nc(N)nc1N1CCC[C@H]1c1nc2cccc(C#N)c2c(=O)n1-c1ccccc1 , report its IC50.
2

Which value of IC50 has been reported for C[C@H](Nc1nc(N)nc(N)c1Cl)c1nc2cccc(CCC(N)=O)c2c(=O)n1-c1cc(F)cc(F)c1 in the records?
20

Source: patent US9765060B2
